biological target: CSNK2A1 (Homo sapiens); experiment: KINOMEscan competition binding; settings: read-out: %Inh CSNK2A1
Sequence (P68400 whole entry): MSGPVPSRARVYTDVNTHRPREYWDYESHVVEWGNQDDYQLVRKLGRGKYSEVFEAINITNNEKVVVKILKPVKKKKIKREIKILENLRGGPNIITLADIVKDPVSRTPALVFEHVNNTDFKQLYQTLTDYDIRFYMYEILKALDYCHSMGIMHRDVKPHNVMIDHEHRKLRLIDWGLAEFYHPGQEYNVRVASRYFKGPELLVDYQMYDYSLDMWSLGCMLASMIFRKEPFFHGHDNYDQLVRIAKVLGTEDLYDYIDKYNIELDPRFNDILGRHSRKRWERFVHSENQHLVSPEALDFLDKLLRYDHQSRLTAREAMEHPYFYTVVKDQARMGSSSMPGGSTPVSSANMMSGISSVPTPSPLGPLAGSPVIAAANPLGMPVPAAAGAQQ
Recorded inhibition at 1 µM, one value per entry.
Measurement kind: inhibition at 1 µM (%)

* COc1cccc(OC)c1C(=O)Nc1cccc(-c2nn3ccccc3c2-c2ccnc(Nc3cccc(F)c3)n2)c1 [UNC10225310A] | 0
* Cn1cc(-c2cnc(N)c3c(-c4ccc5c(c4)CCN5C(=O)Cc4ccccc4)csc23)cn1 [UNC10225012A] | 0
* O=c1cc(N2CCOCC2)nc2n(Cc3cccc(Cl)c3Cl)c(C3CC3)nn12 [UNC10225469A] | 16
* CS(=O)(=O)Cc1ccc(Nc2nccc(-c3c(-c4cccc(NC(=O)C5CCCCC5)c4)nn4ncccc34)n2)cc1 [UNC10225159A] | 17
* Cc1ccc(NC(=O)Nc2cccc(C(F)(F)F)c2)cc1 [UNC10225187A] | 1
